Source of measurements: the kinase profiling compilation of Christmann-Franck et al. (2016)

Molecular target: UniProt Q9P1W9
Sequence (Q9P1W9 whole entry, looked up): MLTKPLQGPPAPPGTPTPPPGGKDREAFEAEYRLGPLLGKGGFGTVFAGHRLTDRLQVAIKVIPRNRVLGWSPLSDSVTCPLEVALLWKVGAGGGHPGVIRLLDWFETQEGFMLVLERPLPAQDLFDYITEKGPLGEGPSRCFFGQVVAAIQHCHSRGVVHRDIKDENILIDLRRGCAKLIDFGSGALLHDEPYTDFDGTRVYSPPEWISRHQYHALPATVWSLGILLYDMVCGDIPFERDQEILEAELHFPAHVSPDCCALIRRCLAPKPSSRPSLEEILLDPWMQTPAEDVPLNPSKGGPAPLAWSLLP
Experiment: KINOMEscan competition binding
Conditions: compound 10.0 µM
# kinase still bound, per cent of control per record follows
Your answer is read as %, so omit the unit and give the number.

Please review the entries below; each comes with its answer.
COc1cc(C(=O)N2CCC(N3CCN(C)CC3)CC2)ccc1Nc1ncc2c(n1)N(C)c1ccccc1C(=O)N2C :: 100
O=C1NC(=O)/C(=C/c2ccc3nccc(-c4ccncc4)c3c2)S1 :: 1
C=CC(=O)Nc1cc(-n2c(=O)ccc3cnc4ccc(-c5cn[nH]c5)cc4c32)ccc1C :: 69
NC(=O)Nc1cc(-c2cccc(F)c2)sc1C(=O)N[C@@H]1CCCNC1 :: 57
COc1cc(N2CCN(C)CC2)ccc1Nc1ncc2c(n1)N(C)c1ccccc1C(=O)N2C :: 100

Provide only the value of recorded kinase still bound, per cent of control for N#CCNC(=O)c1ccc(-c2ccnc(Nc3ccc(N4CCOCC4)cc3)n2)cc1 100
